# System: SW684
# experiment_summary: relative viability vs DMSO control (72 h) (fraction); higher = more viable cells
# recorded_conditions: 0.00051 µM
quantity_kind: relative viability
Number only, please.

- compound: "C[C@H](Nc1ncnc2nc[nH]c12)c1cc2cccc(Cl)c2c(=O)n1-c1ccccc1"
  readout_number: 1.11
- compound: "CCc1cnn2c(NCc3ccc[n+]([O-])c3)cc(N3CCCC[C@H]3CCO)nc12"
  readout_number: 1.01
- compound: "O=C(Nc1nc2cccc(-c3ccc(CN4CCS(=O)(=O)CC4)cc3)n2n1)C1CC1"
  readout_number: 1.19
- compound: "COc1cc(Nc2ncc(F)c(Nc3ccc4c(n3)N(COP(=O)(O)O)C(=O)C(C)(C)O4)n2)cc(OC)c1OC"
  readout_number: 1.17
- compound: "O=C(Nc1ccc(OC(F)(F)Cl)cc1)c1cnc(N2CC[C@@H](O)C2)c(-c2cc[nH]n2)c1"
  readout_number: 1.06
- compound: "Cc1cc2cc(Oc3ccnc(Nc4cccc(CS(=O)(=O)NCCN(C)C)c4)n3)ccc2[nH]1"
  readout_number: 1.09
- compound: "Clc1ccc(Nc2nnc(Cc3ccncc3)c3ccccc23)cc1"
  readout_number: 1.1
- compound: "CCC(=O)N1CC[C@H](Nc2ncnc3c2CN(c2cnc(OC)c(C(F)(F)F)c2)CC3)C1"
  readout_number: 1.14

Input: Which measured relative viability value corresponds to COc1cc(CCc2cc(NC(=O)c3ccc(N4CC(C)NC(C)C4)cc3)n[nH]2)cc(OC)c1 (stereo unspecified) ?
Output: 1.1

Input: Which measured relative viability value corresponds to CC(C)(C)c1nc(-c2cccc(NS(=O)(=O)c3c(F)cccc3F)c2F)c(-c2ccnc(N)n2)s1 ?
Output: 1.09

Input: Which measured relative viability value corresponds to COC(=O)N[C@@H](C)CNc1nccc(-c2cn(C(C)C)nc2-c2cc(Cl)cc(NS(C)(=O)=O)c2F)n1 ?
Output: 1
